Target: CB1 (rCB1) (Rattus norvegicus, UniProt P20272)
Sequence (P20272 whole entry): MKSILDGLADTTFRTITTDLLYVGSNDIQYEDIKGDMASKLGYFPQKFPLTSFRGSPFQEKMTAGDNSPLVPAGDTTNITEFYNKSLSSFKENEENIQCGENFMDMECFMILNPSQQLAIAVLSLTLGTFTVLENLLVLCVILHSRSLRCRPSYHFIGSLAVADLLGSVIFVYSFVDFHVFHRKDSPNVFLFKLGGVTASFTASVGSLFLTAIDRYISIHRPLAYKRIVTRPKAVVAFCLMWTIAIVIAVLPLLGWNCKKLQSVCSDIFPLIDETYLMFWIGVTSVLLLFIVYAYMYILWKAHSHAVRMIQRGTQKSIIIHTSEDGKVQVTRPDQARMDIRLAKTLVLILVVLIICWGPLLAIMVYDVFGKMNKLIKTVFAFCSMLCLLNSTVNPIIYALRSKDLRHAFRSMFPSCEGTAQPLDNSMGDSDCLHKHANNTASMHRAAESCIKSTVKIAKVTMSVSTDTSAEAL
Assay: Single-point radioligand displacement screen
Assay type: binding
Settings: Figure 1c source data, replicate 1
Mark -1 for rep1_displacement values under 20, and 1 for everything at or above.

O=c1c2cnn(-c3ccccc3)c2nnn1Cc1cc(Cl)ccc1Cl    1
O=C1Cc2cc(-c3csc(Cc4ccc(F)cc4)n3)cc3c2N1CCC3    1
CC(O)C1CCCN(C(=O)c2cc(Oc3cccc(Br)c3)ccn2)C1 (centres unmarked)    1
CCCC1CN(C(=O)c2cc(Oc3cccc(Br)c3)ccn2)CCO1 (centres unmarked)    -1

---

Target: hCB1 (Homo sapiens, UniProt P21554)
Sequence (P21554 whole entry): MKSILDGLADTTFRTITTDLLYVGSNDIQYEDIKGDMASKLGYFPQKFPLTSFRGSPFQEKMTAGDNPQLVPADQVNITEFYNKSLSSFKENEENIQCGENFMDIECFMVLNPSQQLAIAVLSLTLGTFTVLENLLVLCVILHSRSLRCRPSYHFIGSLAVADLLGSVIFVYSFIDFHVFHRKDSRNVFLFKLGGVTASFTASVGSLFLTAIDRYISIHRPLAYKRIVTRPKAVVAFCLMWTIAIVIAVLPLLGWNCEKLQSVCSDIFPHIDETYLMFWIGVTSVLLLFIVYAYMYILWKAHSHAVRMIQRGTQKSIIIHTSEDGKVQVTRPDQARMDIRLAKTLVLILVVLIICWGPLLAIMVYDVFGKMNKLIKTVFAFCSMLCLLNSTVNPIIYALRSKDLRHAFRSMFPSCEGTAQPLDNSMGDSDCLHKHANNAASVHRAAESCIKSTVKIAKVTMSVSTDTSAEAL
Experiment: bioSensAll ebBRET signaling profiling, hCB1
Assay type: cell-based
Design: host or cells: HEK293SL cells, transient PEI transfection
Conditions: Barr2+GRK2 biosensor; Log [Compound] (M) -11.0177
property.measured: Barr2+GRK2 hCB1 response

Cn1nc(-c2nnc(C(C)(C)Oc3ccc(Cl)cc3)o2)c2ccccc2c1=O    -42.1341
Cc1nn(Cc2ccc(Cl)cc2)c(C)c1C(=O)OCC1CSc2ccccc2O1 (stereo not drawn)    -49.4727
Cc1nc(CC2CC2)oc1-c1nc(Cc2cc3c(cc2Br)OCO3)no1    -47.2392

---

List of Gi1 hCB1 response values.
Biological target: hCB1 (Homo sapiens, UniProt P21554)
Assay: bioSensAll ebBRET signaling profiling, hCB1
Format: cell-based
Set-up: host or cells: HEK293SL cells, transient PEI transfection
Conditions: Gi1 biosensor; Log [Compound] (M) -8.68787
property.measured: Gi1 hCB1 response

Cc1cc(C(=O)NC(c2ccco2)c2ccco2)nn1-c1cccc(C(F)(F)F)c1 [‘1090]    -2.72
COC(=O)[C@@H]1[C@@H]2CCC[C@@H]2CN1C(=O)c1cc(C)n(-c2cccc(Cl)c2)n1 (racemic) [‘10010]    -2.362
Cc1cc(C(=O)N(C)C(c2ccccc2)c2ccco2)nn1-c1cccc(C(F)(F)F)c1 (stereo not shown) [‘1082]    -1.824
Cc1cc(C(=O)N2CC3(CCC3)[C@H]2[C@@H]2CCCO2)nn1-c1cccc(C(F)(F)F)c1 [‘5490]    -1.578
Cc1cc(C(=O)NC(c2ccccc2)c2ccco2)nn1-c1cccc(C#N)c1 (stereo not shown) [‘12565]    -4.197
CC(=O)C(c1cccs1)N(C)C(=O)c1cc(C)n(-c2cccc(C(F)(F)F)c2)n1 (stereo not shown) [‘6829]    2.45
Cc1cc(C(=O)N2CC3(CCC3)[C@@H]2[C@H]2CCCO2)nn1-c1cccc(C(F)(F)F)c1 (single isomer, unassigned) [compound 430]    4.89

---

Target: UniProt:P21554
Experiment: bioSensAll ebBRET signaling profiling, hCB1
Assay type: cell-based
Set-up: host or cells: HEK293SL cells, transient PEI transfection
Conditions: Log [Compound] (M) -5.05788; single replicate values, FigS6a
Mark each entry satisfied if its GoB hCB1 sits below 60, and not satisfied for all others.

Cc1c(C(=O)OCC2CSc3ccccc3O2)cnn1Cc1ccccc1 (stereo not drawn)    satisfied
COC(=O)[C@@H]1[C@@H]2CC[C@@H]2CN1C(=O)c1cc(C)n(-c2cccc(C(F)(F)F)c2)n1    not satisfied
COC(=O)C(NC(=O)c1cc(C)n(-c2cccc(C(F)(F)F)c2)n1)c1cccs1 (stereo not drawn)    not satisfied
Cc1cc(C(=O)N(C)C(c2ccccc2)c2ccco2)nn1-c1cccc(C(F)(F)F)c1 (stereo not drawn)    satisfied

---

Target: hCB1 (Homo sapiens)
Experiment: bioSensAll ebBRET signaling profiling, hCB1
Type: cell-based
Set-up: host or cells: HEK293SL cells, transient PEI transfection
Details: Log [Compound] (M) -5.47381; single replicate values, FigS6a
property.measured: Gi1 hCB1

Cc1cc(C(=O)N(C)C(c2ccccc2)c2ccco2)nn1-c1cccc(C(F)(F)F)c1 (stereo not shown) [‘1082]    -11.4426
Cc1nn(Cc2ccc(Cl)cc2)c(C)c1C(=O)OCC1CSc2ccccc2O1 (stereo not shown) [‘5463]    14.3358
Cc1c(C(=O)OCC2CSc3ccccc3O2)cnn1Cc1ccccc1 (stereo not shown) [‘7800]    12.8471
Cc1cc(C(=O)N2CC3(CCC3)[C@@H]2[C@H]2CCCO2)nn1-c1cccc(C(F)(F)F)c1 (single isomer, unassigned) [compound 430]    0.08902
Cc1cc(C(=O)N2CC3(CCC3)[C@H]2[C@H]2CCCO2)nn1-c1cccc(C(F)(F)F)c1 [‘1651]    51.5496
Cc1cc(C(=O)NC(c2ccco2)c2ccco2)nn1-c1cccc(C(F)(F)F)c1 [‘1090]    75.954
COC(=O)[C@@H]1[C@@H]2CCC[C@@H]2CN1C(=O)c1cc(C)n(-c2cccc(Cl)c2)n1 (racemic) [‘10010]    60.337

---

List of Gi1 hCB1 response values.
Molecular target: hCB1 (Homo sapiens)
Assay: bioSensAll ebBRET signaling profiling, hCB1
Assay type: cell-based
Parameters: host or cells: HEK293SL cells, transient PEI transfection
Details: Gi1 biosensor; Log [Compound] (M) -8
property.measured: Gi1 hCB1 response

COC(=O)[C@](C)(NC(=O)c1cc(C)n(-c2cccc(C(F)(F)F)c2)n1)c1cccs1 [‘8690]    17.9832
Cc1cc(C(=O)N2CC3(CCC3)[C@@H]2[C@H]2CCCO2)nn1-c1cccc(C(F)(F)F)c1 (single isomer, unassigned) [compound 430]    -4.174
Cc1cc(C(=O)N2CC3(CCC3)[C@@H]2[C@@H]2CCCO2)nn1-c1cccc(C(F)(F)F)c1 [‘3386]    -1.959
Cc1cc(C(=O)N2CC3(CCC3)[C@H]2[C@H]2CCCO2)nn1-c1cccc(C(F)(F)F)c1 [‘1651]    -4.488
CC(=O)C(c1cccs1)N(C)C(=O)c1cc(C)n(-c2cccc(C(F)(F)F)c2)n1 (stereo not shown) [‘6829]    -3.011
Cc1cc(C(=O)N2CC3(CCC3)[C@H]2[C@@H]2CCCO2)nn1-c1cccc(C(F)(F)F)c1 [‘5490]    4.733
COc1cccc(C(NC(=O)c2cc(C)n(-c3cccc(C(F)(F)F)c3)n2)c2ccco2)c1 (stereo not shown) [‘1087]    -2.496

---

Target: hCB1 (Homo sapiens, UniProt P21554)
Test: bioSensAll ebBRET signaling profiling, hCB1
Assay type: cell-based
Set-up: host or cells: HEK293SL cells, transient PEI transfection
Details: Gi1 biosensor; Log [Compound] (M) -8.22186
List of Gi1 hCB1 response values.
property.measured: Gi1 hCB1 response

COC(=O)[C@](C)(NC(=O)c1cc(C)n(-c2cccc(C(F)(F)F)c2)n1)c1cccs1    31.0987
COC(=O)C(NC(=O)c1cc(C)n(-c2cccc(C(F)(F)F)c2)n1)c1cccs1 (stereo not shown)    41.0808
COC(=O)C(NC(=O)c1cc(C)n(-c2cccc(F)c2)n1)c1cccs1 (stereo not shown)    0.839
Cc1cc(C(=O)N2CC3(CCC3)[C@@H]2[C@@H]2CCCO2)nn1-c1cccc(C(F)(F)F)c1    -1.847

---

Molecular target: hCB1 (Homo sapiens)
Experiment: bioSensAll ebBRET signaling profiling, hCB1
Type: cell-based
Set-up: host or cells: HEK293SL cells, transient PEI transfection
Conditions: Log [Compound] (M) -10.0969; single replicate values, FigS6a
property.measured: GoB hCB1

COC(=O)C(NC(=O)c1cc(C)n(-c2cccc(F)c2)n1)c1cccs1 (stereo not shown)    -3.176
Cc1nc(CC2CC2)oc1-c1nc(Cc2cc3c(cc2Br)OCO3)no1    -5.6139
Cc1nn(Cc2ccc(Cl)cc2)c(C)c1C(=O)OCC1CSc2ccccc2O1 (stereo not shown)    -3.201
COc1cccc(C(NC(=O)c2cc(C)n(-c3cccc(C(F)(F)F)c3)n2)c2ccco2)c1 (stereo not shown)    4.054
Cc1cc(C(=O)N2CC3(CCC3)[C@@H]2[C@H]2CCCO2)nn1-c1cccc(C(F)(F)F)c1 (single isomer, unassigned)    -1.125
Cn1nc(-c2nnc(C(C)(C)Oc3ccc(Cl)cc3)o2)c2ccccc2c1=O    -8.097
COC(=O)[C@@H]1[C@@H]2CCC[C@@H]2CN1C(=O)c1cc(C)n(-c2cccc(Cl)c2)n1 (racemic)    -4.057
Brc1cc2c(cc1Cc1noc(-c3cnn(CC4CC4)c3)n1)OCO2    -5.128
Cc1cc(C(=O)N2CC3(CCC3)[C@@H]2[C@@H]2CCCO2)nn1-c1cccc(C(F)(F)F)c1    1.158
Cc1cc(C(=O)N2CC3(CCC3)[C@H]2[C@H]2CCCO2)nn1-c1cccc(C(F)(F)F)c1    3.298
Cc1cc(C(=O)NC(c2ccco2)c2ccco2)nn1-c1cccc(C(F)(F)F)c1    -0.2442
Cc1cc(C(=O)N(C)C(c2ccccc2)c2ccco2)nn1-c1cccc(C(F)(F)F)c1 (stereo not shown)    -1.485
Cc1cc(C(=O)N(C)C(c2ccco2)c2ccco2)nn1-c1cccc(C(F)(F)F)c1    -0.7298
Cc1cc(C(=O)NC(c2ccccc2)c2ccco2)nn1-c1cccc(C(F)(F)F)c1 (stereo not shown)    -2.51
COC(=O)[C@@H]1[C@@H]2CCC[C@@H]2CN1C(=O)c1cc(C)n(-c2cccc(C(F)(F)F)c2)n1    -4.219
COC(=O)[C@@H]1[C@@H]2CC[C@@H]2CN1C(=O)c1cc(C)n(-c2cccc(C(F)(F)F)c2)n1    -3.751

Values compiled from paper PMC11882969.
